Reference for the values: patent US9174964B2

# target-under-test: AMPK
# assay-protocol: AMPK activation, enzyme-linked immunosorbent assay
# Type: biochemical
# experimental-conditions: Table 4, AMPK activation, ELISA
Where a name gives a salt, the structure may show the parent alone.
quantity-kind: EC50

N#Cc1ccc(CN2CCC(Oc3ccc4oc(C(=O)NC5CCN(Cc6ccncc6)CC5)cc4c3)CC2)cc1 [Compound 79]	100 to 500 nM
O=C(NC1CCN(Cc2ccc(F)cc2)CC1)c1cc2ccc(OC3CCN(c4ccc(C(F)(F)F)cc4)CC3)cc2o1 [Compound 91]	> 50000 nM
CC(C)(C)OC(=O)N1CCC(NC(=O)c2cc3cc(OC4CCN(Cc5ccc(C#N)cc5)CC4)ccc3o2)CC1 [Compound 113]	100 to 500 nM
CC(C)(C)OC(=O)N1CC[C@@H](NC(=O)c2cc3cc(OC4CCN(c5ccc(C(F)(F)F)cc5)CC4)ccc3o2)C1 [Compound 120]	1000 to 10000 nM
O=C(NC1CCNCC1)c1cc2ccc(OC3CCN(c4ccc(OC(F)(F)F)cc4)CC3)cc2o1 [Compound 83, hydrochloride]	100 to 500 nM
Cc1c(C(=O)NC2CCN(Cc3ccc(F)cc3)CC2)oc2cc(OC3CCN(c4ccc(C(F)(F)F)cc4)CC3)ccc12 [Compound 63]	< 100 nM
O=C(NC1CCN(Cc2ccncc2)CC1)c1cc2ccc(OC3CCN(c4ccc(OC(F)(F)F)cc4)CC3)cc2o1 [Compound 88]	< 100 nM
CN(C(=O)c1cc2cc(OC3CCN(c4ccc(C(F)(F)F)cc4)CC3)ccc2o1)C1CCN(Cc2cccnc2)CC1 [Compound 109]	< 100 nM

###

# target-under-test: AMPK
# assay-protocol: AMPK activation, enzyme-linked immunosorbent assay
# Type: biochemical
# experimental-conditions: Table 2, AMPK activation, ELISA
pEC50: −log10 of the molar value.
quantity-kind: pEC50

COC(=O)c1ccc(CN2CCC(NC(=O)c3ccc(OC4CCN(c5ccc(C(F)(F)F)cc5)CC4)cn3)CC2)cc1	> 7.00
O=C(N[C@@H]1CCNC1)c1ccc(OC2CCN(c3ccc(C(F)(F)F)cc3)CC2)cn1	5.00 to 5.30
O=C(NC1CCN(Cc2ccncc2)CC1)c1ccc(OC2CCN(c3ccc(C(F)(F)F)cc3)CC2)cn1	> 7.00
CC(C)(C)OC(=O)N1CC[C@H](NC(=O)c2ccc(OC3CCN(c4ccc(C(F)(F)F)cc4)CC3)cn2)C1	6.30 to 7.00
O=C(NC1CCN(Cc2ccncc2)CC1)c1ccnc(OC2CCN(c3ccc(C(F)(F)F)cc3)CC2)c1	6.00 to 6.30

###

# target-under-test: AMPK
# assay-protocol: AMPK activation, enzyme-linked immunosorbent assay
# Format: biochemical
# experimental-conditions: Table 2, AMPK activation, ELISA
quantity-kind: EC50

N#Cc1ccc(N2CCC(Oc3ccc(C(=O)NC4CCN(Cc5ccncc5)CC4)nc3)CC2)cc1 [Compound 1]	0.1 to 0.5 µM
O=C(NC1CCN(Cc2cccnc2)CC1)c1ccc(OC2CCN(c3ccc(C(F)(F)F)cc3)CC2)cn1 [Compound 5]	< 0.1 µM
O=C(N[C@H]1CCN(Cc2ccncc2)C1)c1ccc(OC2CCN(c3ccc(C(F)(F)F)cc3)CC2)cn1 [Compound 30]	< 0.1 µM
O=C(O)c1ccc(CN2CCC(NC(=O)c3ccc(OC4CCN(c5ccc(C(F)(F)F)cc5)CC4)nc3)CC2)cc1 [Compound 46]	1 to 5 µM
CC(C)(C)OC(=O)N1CCC(NC(=O)c2ccc(OC3CCN(c4ccc(C(F)(F)F)cc4)CC3)nc2)CC1 [Compound 9]	0.1 to 0.5 µM
N#Cc1ccc(CN2CCC(NC(=O)c3ccc(OC4CCN(c5ccc(C(F)(F)F)cc5)CC4)nc3)CC2)cc1 [Compound 35]	0.1 to 0.5 µM
COC(=O)c1ccc(CN2CCC(NC(=O)c3ccc(OC4CCN(c5ccc(C(F)(F)F)cc5)CC4)nc3)CC2)cc1 [Compound 45]	> 10 µM

###

# target-under-test: AMPK
# assay-protocol: AMPK activation, enzyme-linked immunosorbent assay
# Type: biochemical
# experimental-conditions: Table 4, AMPK activation, ELISA
The following molecules are listed with their measured EC50 values.
quantity-kind: EC50

NC(=O)c1ccc(CN2CCC(Oc3ccc4oc(C(=O)NC5CCN(Cc6ccccc6)CC5)cc4c3)CC2)cc1 [Compound 116]	100 to 500 nM
O=C(NC1CCN(Cc2ccccc2)CC1)c1cc2cc(OC3CCN(Cc4ccc(F)c(F)c4)CC3)ccc2o1 [Compound 74]	100 to 500 nM
O=C(NC1CCN(Cc2ccccc2)CC1)c1cc2cc(OC3CCN(c4ccc(C(F)(F)F)cc4)CC3)ccc2o1 [Compound 75]	< 100 nM
O=C(NC1CCN(Cc2ccccn2)CC1)c1cc2ccc(OC3CCN(c4ccc(C(F)(F)F)cc4)CC3)cc2o1 [Compound 93]	100 to 500 nM
O=C(NC1CCN(S(=O)(=O)c2cccnc2)CC1)c1cc2ccc(OC3CCN(c4ccc(OC(F)(F)F)cc4)CC3)cc2o1 [Compound 108]	100 to 500 nM
O=C(N[C@@H]1CCN(Cc2ccccn2)C1)c1cc2cc(OC3CCN(c4ccc(C(F)(F)F)cc4)CC3)ccc2o1 [Compound 124]	1000 to 10000 nM
O=C(NC1CCN(C(=O)c2ccncc2)CC1)c1cc2ccc(OC3CCN(c4ccc(C(F)(F)F)cc4)CC3)cc2o1 [Compound 112]	< 100 nM

###

EC50 reference
# target-under-test: AMPK
# assay-protocol: AMPK activation, enzyme-linked immunosorbent assay
# Type: biochemical
# experimental-conditions: Table 5, AMPK activation, ELISA
quantity-kind: EC50

O=C(NC1CCN(Cc2cccnc2)CC1)c1sc2cc(OC3CCN(c4ccc(C(F)(F)F)cc4)CC3)ccc2c1Cl	< 100 nM
CC(C)(C)OC(=O)N1CCC(NC(=O)c2cc3ccc(OC4CCN(c5ccc(C(F)(F)F)cc5)CC4)cc3s2)CC1	500 to 1000 nM
O=C(NC1CCN(Cc2ccncc2)CC1)c1cc2cc(OC3CCN(c4ccc(C(F)(F)F)cc4)CC3)ccc2s1	< 100 nM
N#Cc1cccc(CN2CCC(NC(=O)c3cc4ccc(OC5CCN(c6ccc(C(F)(F)F)cc6)CC5)cc4s3)CC2)c1	100 to 500 nM
O=C(NC1CCN(C(=O)c2ccncc2)CC1)c1sc2cc(OC3CCN(c4ccc(C(F)(F)F)cc4)CC3)ccc2c1Cl	< 100 nM
CC(C)(C)OC(=O)N1CCC(NC(=O)c2cc3cc(OC4CCN(c5ccc(C(F)(F)F)cc5)CC4)ccc3s2)CC1	< 100 nM
O=C(NC1CCNCC1)c1sc2cc(OC3CCN(c4ccc(C(F)(F)F)cc4)CC3)ccc2c1Cl	> 50000 nM
N#Cc1ccc(CN2CCC(NC(=O)c3cc4ccc(OC5CCN(c6ccc(C(F)(F)F)cc6)CC5)cc4s3)CC2)cc1	< 100 nM
O=C(NC1CCNCC1)c1cc2ccc(OC3CCN(c4ccc(C(F)(F)F)cc4)CC3)cc2s1	100 to 500 nM
